- TARGET_SYSTEM: Trace amine-associated receptor 1 (Mus musculus, UniProt Q923Y8)
- Sequence (Q923Y8 whole entry): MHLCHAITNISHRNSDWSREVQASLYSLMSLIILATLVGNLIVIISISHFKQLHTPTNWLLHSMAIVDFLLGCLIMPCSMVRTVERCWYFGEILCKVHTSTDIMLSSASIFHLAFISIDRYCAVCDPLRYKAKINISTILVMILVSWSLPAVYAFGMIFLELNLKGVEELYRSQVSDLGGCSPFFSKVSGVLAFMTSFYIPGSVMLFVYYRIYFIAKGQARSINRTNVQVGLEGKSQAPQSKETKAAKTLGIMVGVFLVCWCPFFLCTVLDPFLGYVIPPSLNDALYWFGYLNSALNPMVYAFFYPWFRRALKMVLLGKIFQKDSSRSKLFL
- EXPERIMENTAL_DETAILS: Radioligand Binding Assay : HEK-293 cells stably expressing mouse TAAR1 were maintained at 37° C. and 5% CO2 in DMEM high glucose medium, containing fetal calf serum (10%, heat inactivated for 30 min at 56° C.), penicillin/streptomycin (1%), and 375 μg/ml geneticin (Gibco). Cells were released from culture flasks using trypsin/EDTA, harvested, washed twice with ice-cold PBS (without Ca2+ and Mg2+), pelleted at 1,000 rpm for 5 min at 4° C., frozen and stored at −80° C. Frozen pellets were suspended in 20 ml HEPES-NaOH (20 mM, pH 7.4) containing 10 mM EDTA and homogenized with a Polytron (PT 6000, Kinematica) at 14′000 rpm for 20 s. The homogenate was centrifuged at 48,000×g for 30 min at 4° C. Subsequently, the supernatant was removed and discarded, and the pellet resuspended in 20 ml HEPES-NaOH (20 mM, pH 7.4) containing 0.1 mM EDTA using the Polytron (20 s at 14′000 rpm). This procedure was repeated and the final pellet resuspended in HEPES-NaOH containing 0.1 mM EDTA and homogenized using the Polytron. Typically, aliquots of 2 ml membrane portions were stored at −80° C. With each new membrane batch the dissociation constant (Kd) was determined via a saturation curve.
QUANTITY_KIND: pKi
As a rule, pKi stands for the negative log10 of the concentration, concentration in M.

Note to self: pKi recorded for CCCc1n[nH]c(C(=O)Nc2ccc(C3CNCCO3)nc2)c1Cl (racemic) was 8.25
